test system: EKVX NSCLC; assay: NCI tumour cell line growth inhibition, 48 h

MOLECULE	TGI
C[C@]12CC[C@H](O)CC1=CC[C@@H]1[C@@H]2CC[C@]2(C)C(=O)/C(=C/c3ccc([N+](=O)[O-])cc3)C[C@@H]12	24.9 µM
Nc1c(C(=O)NC23CC4CC(CC(C4)C2)C3)[n+]([O-])c2ccccc2[n+]1[O-]	> 100 µM
O=C(Cn1c(C(=O)c2ccc(Cl)cc2)nc(-c2ccccc2)c1-c1ccccc1)c1ccc(Cl)cc1	> 100 µM
Nc1nc(-c2ccc(Cl)cc2)cc(-c2ccc(Cl)cc2)c1-c1nc2ccccc2o1	31.4 µM
O=S1c2ccccc2NC(c2ccc3ccccc3c2)CC1c1ccccc1 (centres undefined)	63.9 µM
COc1ccc(C2=NNC(c3cc4cc(Br)ccc4nc3Cl)C2)cc1 (centres undefined)	> 25 µM
O=C(NO)c1ccc(Cn2c(=O)n(-c3ccccc3)c(=O)c3ccccc32)cc1	2.69 µM
N#Cc1ccc(C2Oc3ccc(Cl)cc3C=C2[N+](=O)[O-])cc1 (centres undefined)	3.42 µM
CC(C)=CCC[C@@H](C)C1=CC(=O)C(C)=C(O)C1=O	13.9 µM
OCC1OC(c2ccccc2)CC1O (centres undefined)	> 100 µM
C[C@@H](Oc1cc(-n2cnc3ccc(OCC4CCN(C)CC4)cc32)sc1C(N)=O)c1ccccc1Cl	4.96 µM
CN1C(=O)CCC1c1ccc2c(c1)oc(=O)n2C (centres undefined)	> 100 µM
c1ccc2c(c1)Sc1ccccc1N2C1CN2CCC1CC2 (centres undefined)	27.7 µM
CN(C)CC1CCCCCC(Br)C1=O (centres undefined)	30.8 µM
Cc1cccc(C(C)C)c1NC(=O)CCl	53.2 µM
CCCCCCCCCCC[C@@H](C[C@H]1OC(=O)[C@H]1CCCCCC)OC(=O)[C@@H](CC(C)C)NC=O	> 100 µM
COc1cc2cnc(-c3ccccc3)cc2cc1OC	34.3 µM
CN1CCN(c2ccc3nc(-c4[nH]ncc4Nc4ncnc5c4OCCCN5)[nH]c3c2)CC1	0.183 µM
CCOC(=O)C(=O)Nc1ccccc1OCC	> 100 µM
O=c1c2c(=NCCN3CCCC3)cc3c(=O)n(CCCN4CCOCC4)c(=O)c4ccc(c(O)n1CCCN1CCOCC1)c2c4-3	0.427 µM
CN(C)c1ccc2cc3ccc(N(C)C)cc3nc2c1	7.21 µM
CCOC(=O)C(NC(=O)CC)(Nc1ccc(S(=O)(=O)Nc2ccc(OC)nn2)cc1)C(F)(F)F (centres undefined)	> 100 µM
CCC(C)c1cccc(C)c1NC(=O)C(=O)Cc1nc2ccccc2s1 (centres undefined)	> 100 µM
O=C1/C(=C/c2ccc(Cl)c(Cl)c2)CNC/C1=C\c1ccc(Cl)c(Cl)c1	13.6 µM
COc1ccc(N2C(=O)C3c4[nH]c5ccccc5c4C4c5ccccc5CC4C3C2=O)cc1 (centres undefined)	> 100 µM
C=CCOCn1ccc(N)nc1=O	> 100 µM
O=C(CCN1CCCC1)Nc1ccc2c(NCCc3ccccc3)c3ccccc3nc2c1	2.16 µM
O=c1[nH]c(=O)n(COCc2ccccc2)c2ccccc12	> 100 µM
ClC1c2ccccc2C2(c3ccccc3)OOC1(c1ccccc1)O2 (centres undefined)	4.62 µM
CCn1c(=O)c2c3ccc(OC)cc3[nH]c2c2ccc(OC)cc21	> 100 µM
O=C(Nc1ccc(Sc2ccc(N=Nc3c(O)c(S(=O)(=O)O)cc4cc(S(=O)(=O)O)ccc34)cc2)cc1)c1ccc(N=Nc2c(O)c(S(=O)(=O)O)cc3cc(S(=O)(=O)O)ccc23)cc1	> 100 µM
C=C1CCC2C(C)(CO)C(O)CCC2(C)C1C/C=C1/CCOC1=O (centres undefined)	> 100 µM
CC(C)C1=C(Cc2ccccc2)C(=O)O/C1=C\c1ccc(O)c(Cl)c1	30.3 µM
COc1ccc(N2N=NN(C(C)C)/C2=C(/Cl)c2nnnn2-c2ccc(OC)cc2)cc1	36.1 µM
